target: NaV1.3 (Homo sapiens); construct: expressed in transfected cells; host or cells: HEK293; experiment: VIPR optical membrane potential assay with electrical stimulation, NaV1.3; assay type: cell-based; details: Table 9, NaV 1.3 receptors
Sequence (Q9NY46 whole entry): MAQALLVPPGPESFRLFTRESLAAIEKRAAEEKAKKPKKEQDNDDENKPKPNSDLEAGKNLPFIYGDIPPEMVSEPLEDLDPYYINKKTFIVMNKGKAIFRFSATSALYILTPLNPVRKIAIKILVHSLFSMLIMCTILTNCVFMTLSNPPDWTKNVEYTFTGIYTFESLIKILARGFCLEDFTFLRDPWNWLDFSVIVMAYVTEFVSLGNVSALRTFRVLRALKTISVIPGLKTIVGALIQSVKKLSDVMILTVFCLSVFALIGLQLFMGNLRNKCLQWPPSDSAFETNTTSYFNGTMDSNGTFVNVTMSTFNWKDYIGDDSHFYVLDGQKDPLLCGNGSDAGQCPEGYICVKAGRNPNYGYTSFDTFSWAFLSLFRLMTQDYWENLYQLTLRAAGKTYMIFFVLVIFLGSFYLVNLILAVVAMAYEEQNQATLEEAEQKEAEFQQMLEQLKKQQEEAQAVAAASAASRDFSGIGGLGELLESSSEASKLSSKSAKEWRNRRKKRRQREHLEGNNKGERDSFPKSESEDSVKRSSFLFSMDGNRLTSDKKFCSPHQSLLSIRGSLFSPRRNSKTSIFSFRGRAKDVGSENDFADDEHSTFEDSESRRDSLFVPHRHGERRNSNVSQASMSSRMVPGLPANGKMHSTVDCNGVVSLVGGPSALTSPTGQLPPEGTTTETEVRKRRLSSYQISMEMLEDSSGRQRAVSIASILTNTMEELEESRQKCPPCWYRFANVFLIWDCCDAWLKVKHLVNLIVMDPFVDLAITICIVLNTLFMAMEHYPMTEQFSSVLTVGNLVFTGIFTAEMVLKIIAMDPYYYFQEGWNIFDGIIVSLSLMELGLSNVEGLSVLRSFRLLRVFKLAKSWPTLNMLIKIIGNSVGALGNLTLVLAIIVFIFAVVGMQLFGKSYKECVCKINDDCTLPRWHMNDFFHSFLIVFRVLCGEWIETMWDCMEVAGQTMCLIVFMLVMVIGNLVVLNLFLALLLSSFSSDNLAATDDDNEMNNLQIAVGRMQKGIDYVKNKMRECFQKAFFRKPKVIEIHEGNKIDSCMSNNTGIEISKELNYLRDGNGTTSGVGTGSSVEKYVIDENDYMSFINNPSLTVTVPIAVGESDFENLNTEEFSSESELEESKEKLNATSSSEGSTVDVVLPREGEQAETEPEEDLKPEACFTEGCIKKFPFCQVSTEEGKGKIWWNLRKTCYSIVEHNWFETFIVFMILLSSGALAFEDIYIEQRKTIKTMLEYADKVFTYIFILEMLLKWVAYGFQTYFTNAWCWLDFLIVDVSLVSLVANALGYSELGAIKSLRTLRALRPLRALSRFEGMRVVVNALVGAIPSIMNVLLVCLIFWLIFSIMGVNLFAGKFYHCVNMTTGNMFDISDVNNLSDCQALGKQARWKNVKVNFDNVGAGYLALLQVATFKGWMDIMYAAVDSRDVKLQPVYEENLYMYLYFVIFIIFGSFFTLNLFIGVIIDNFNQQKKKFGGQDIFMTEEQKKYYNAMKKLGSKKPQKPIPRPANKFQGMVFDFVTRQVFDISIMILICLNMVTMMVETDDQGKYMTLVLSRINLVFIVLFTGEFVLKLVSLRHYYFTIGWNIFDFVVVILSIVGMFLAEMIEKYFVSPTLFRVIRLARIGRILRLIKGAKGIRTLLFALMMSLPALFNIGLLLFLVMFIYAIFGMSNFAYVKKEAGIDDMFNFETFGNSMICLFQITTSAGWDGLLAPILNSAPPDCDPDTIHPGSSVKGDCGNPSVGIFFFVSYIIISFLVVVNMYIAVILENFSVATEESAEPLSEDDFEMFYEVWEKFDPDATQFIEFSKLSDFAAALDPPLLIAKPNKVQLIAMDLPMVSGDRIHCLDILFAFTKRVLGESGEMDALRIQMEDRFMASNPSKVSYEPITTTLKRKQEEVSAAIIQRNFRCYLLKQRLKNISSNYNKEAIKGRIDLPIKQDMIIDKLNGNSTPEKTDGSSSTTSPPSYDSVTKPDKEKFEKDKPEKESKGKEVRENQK
Attribute measured: IC50

Please review the following examples before continuing.
Molecule	Target of assay	IC50
O=C(c1cnc(N2CCOCC2)nc1-c1ccccc1F)N(Cc1ccccc1)C1CCCCC1 [compound 64]	NaV1.3 (Homo sapiens)	2 to 10 µM
COCCCNC(=O)c1cnc(NCCc2ccc(OC)cc2)nc1-c1cccc(C)c1 [compound 258]	NaV1.3 (Homo sapiens)	> 10 µM
CCC(C)NC(=O)c1cnc(N(C)CC(C)C)nc1-c1ccc(C#N)cc1 (stereo not drawn) [compound 230]	NaV1.3 (Homo sapiens)	> 10 µM
COc1ccc(CN(C(=O)c2cnc(N3CCC4CCCCC4C3)nc2-c2ccccc2F)C2CC2)cc1 (stereo not drawn) [compound 184]	NaV1.3 (Homo sapiens)	> 10 µM

Quick check: IC50 of COc1ccc(N(C(=O)c2cnc(N3CCCCC3)nc2-c2ccccc2Cl)C(C)C)cc1 [compound 43] ?
2 to 10 µM

Quick check: IC50 of Cc1nc(N2CCOCC2)nc(-c2ccccc2F)c1C(=O)N(Cc1ccc2c(c1)CCO2)C1CC1 [compound 200] ?
2 to 10 µM

Quick check: IC50 of CC1CCc2ccccc2N1C(=O)c1cnc(N2CCOCC2)nc1-c1ccccc1F (stereo not drawn) [compound 52] ?
2 to 10 µM

Quick check: IC50 of CC(C)N(Cc1ccc(N2CCCC2)cc1)C(=O)c1cnc(N2CCCCC2)nc1-c1ccccc1F [compound 50] ?
> 10 µM

Quick check: IC50 of CC(C)CN(C)C(=O)c1cnc(NCc2ccc3c(c2)OCO3)nc1-c1ccc(C#N)cc1 [compound 263] ?
> 10 µM

Quick check: IC50 of CC(C)CN(C)C(=O)c1cnc(N2CCCCC2)nc1-c1ccc(C#N)cc1 [compound 322] ?
> 10 µM

Quick check: IC50 of O=C(c1cnc(N2CCOCC2)nc1-c1ccccc1F)N(Cc1cccc(C(F)(F)F)c1)C1CC1 [compound 195] ?
> 10 µM

Quick check: IC50 of CC(C)N(Cc1ccccc1)C(=O)c1cnc(Nc2ccc3c(c2)OCO3)nc1-c1ccccc1F [compound 51] ?
2 to 10 µM

Quick check: IC50 of CN1CCN(c2ncc(C(=O)N(Cc3ccccc3)C3CCCC3)c(-c3ccccc3F)n2)CC1 [compound 148] ?
> 10 µM

Quick check: IC50 of O=C(NC1CC1c1ccccc1)c1cnc(N2CCOCC2)nc1-c1ccccc1F (stereo not drawn) [compound 97] ?
> 10 µM

Quick check: IC50 of CC(C)N(C(=O)c1cnc(N2CCOCC2)nc1-c1ccccc1F)c1ccc2c(c1)OCO2 [compound 182] ?
> 10 µM

Quick check: IC50 of O=C(c1cnc(N2CCCCC2)nc1-c1ccccc1F)N(Cc1ccccc1)C1CC1 [compound 90] ?
2 to 10 µM

Quick check: IC50 of CCC1CCC(C)N(C(=O)c2cnc(N(C)CC)nc2-c2ccccc2F)C1 (stereo not drawn) [compound 282] ?
> 10 µM

Quick check: IC50 of COc1cccc(N(C(=O)c2cnc(N3CCCCC3)nc2-c2ccccc2F)C2CC2)c1 [compound 158] ?
> 10 µM

Quick check: IC50 of CCCCNc1ncc(C(=O)N2CC(C)CC(C)C2)c(-c2ccc(C#N)cc2)n1 (stereo not drawn) [compound 320] ?
> 10 µM

Quick check: IC50 of CC(C)N(C(=O)c1cnc(N2CCOCC2)nc1-c1ccccc1F)C1CCSC1 (stereo not drawn) [compound 172] ?
> 10 µM

Quick check: IC50 of O=C(NC1CCC1)c1cnc(N2CCOCC2)nc1-c1ccccc1F [compound 174] ?
> 10 µM

Cited source: patent US8546414B2
